Origin of measurements: ChEMBL document CHEMBL5729575

Tgt: Fibroblast growth factor receptor 2 (Homo sapiens, UniProt P21802)
Sequence (P21802 whole entry, the tested form may be a part): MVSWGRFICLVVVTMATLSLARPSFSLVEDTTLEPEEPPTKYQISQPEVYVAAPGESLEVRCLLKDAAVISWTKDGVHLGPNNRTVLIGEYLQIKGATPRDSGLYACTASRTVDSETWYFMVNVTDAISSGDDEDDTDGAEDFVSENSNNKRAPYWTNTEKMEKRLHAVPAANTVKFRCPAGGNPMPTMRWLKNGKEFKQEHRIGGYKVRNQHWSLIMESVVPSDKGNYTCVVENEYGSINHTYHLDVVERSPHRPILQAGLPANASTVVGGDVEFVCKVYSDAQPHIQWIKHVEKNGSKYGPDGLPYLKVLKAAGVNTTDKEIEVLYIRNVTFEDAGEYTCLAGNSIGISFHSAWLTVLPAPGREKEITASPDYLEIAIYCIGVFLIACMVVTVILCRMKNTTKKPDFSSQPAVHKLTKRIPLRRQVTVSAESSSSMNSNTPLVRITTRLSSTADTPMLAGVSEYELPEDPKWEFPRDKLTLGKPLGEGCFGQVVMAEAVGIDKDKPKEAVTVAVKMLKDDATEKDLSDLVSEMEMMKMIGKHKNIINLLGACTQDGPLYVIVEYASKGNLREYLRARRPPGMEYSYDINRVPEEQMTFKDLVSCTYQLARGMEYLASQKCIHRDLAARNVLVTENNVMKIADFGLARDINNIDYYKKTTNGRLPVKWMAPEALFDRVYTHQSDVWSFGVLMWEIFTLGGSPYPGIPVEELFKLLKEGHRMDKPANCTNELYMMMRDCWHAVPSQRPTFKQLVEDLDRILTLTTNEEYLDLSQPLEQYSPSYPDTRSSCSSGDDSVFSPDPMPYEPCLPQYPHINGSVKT
Experimental Protocol: FGFR2 Activity Inhibition Test: The reaction buffer contains the following components: 5-fold diluted enzymatic buffer/kinase 5x(Cisbio, Cat No. 62EZBFDD)(its main component is 50nM HEPES, pH 7.0), 5mM MgCl2 and 1 mM DTT, a human recombinant FGFR2 catalytic domain protein (amino acid 400-821) which was purchased from Yiqiao Shenzhou Biotech Co. Ltd., a 0.45ng/uL kinase solution diluted by the …
Measured Parameter: IC50

>>> val("CC#CC(=O)N1CC[C@H](n2nc(C#Cc3cc(OC)cc(OC)c3)c(C(N)=O)c2N)C1")
"< 10 nM"
